pIC50 overview
- Study Target: KRAS (G12D)::SOS1 (Homo sapiens (Human), UniProt P01116, G12D)
- Sequence (P01116 other isoform, or with tags, fused parts or gaps G12D): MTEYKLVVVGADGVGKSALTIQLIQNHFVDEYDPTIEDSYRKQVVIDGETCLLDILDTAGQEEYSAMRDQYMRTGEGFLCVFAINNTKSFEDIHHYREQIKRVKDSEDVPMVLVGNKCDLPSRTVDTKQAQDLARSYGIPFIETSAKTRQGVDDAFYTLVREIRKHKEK
- Assay Name: KRAS::SOS1 AlphaScreen binding assay, KRAS G12D
- Experimental: This assay can be used to examine the potency with which compounds according to the invention binding to (mutated) KRAS inhibit the protein-protein interaction between SOS1 and (mutated) KRAS e.g., KRAS WT, KRAS G12C, KRAS G12D, KRAS G12V, KRAS G13D. […] Plates are kept at room temperature in a darkened incubator. After an additional 60 minutes incubation time the signal is measured in a PerkinElmer Envision HTS Multilabel Reader using the AlphaScreen specs from PerkinElmer. […]
pIC50: −log10 of the molar value.

# Compound, pIC50
measured = [
    ("C[C@H](Oc1nc(-c2noc3c2CCC[C@@]32CCCc3sc(N)c(C#N)c32)nc(N2C[C@H](C)NC3(CC3)C2)c1F)[C@@H]1C[C@@H](F)CN1C", 9.00),
    ("C[C@H](Oc1cc(N2C[C@H](C)NC3(CC3)C2)nc(-c2noc3c2CCC[C@@]32CCCc3sc(N)c(C#N)c32)n1)[C@@H]1C[C@@H](F)CN1C", 8.70),
    ("C[C@H](Oc1cc(-c2cncs2)nc(-c2noc3c2CCC[C@@]32CCCc3sc(N)c(C#N)c32)n1)[C@@H]1CCCN1C", 8.15),
]

---

solubility at 24 h overview
- Assay Name: Solubility measurement (DMSO solution method), McIlvaine buffer pH 4.5 or 6.8
- Assay type: physicochemical
- Details: aqueous buffer, kinetic from dmso stock; McIlvaine buffer pH 4.5; DMSO stock diluted to 250 μM; 24 h shaking at ambient temperature; read-out: solubility pH 4.5

# Compound, solubility at 24 h
rows = [
    ("C[C@H](Oc1cc(N2C[C@H](C)N(C)[C@@H](C)C2)nc(-c2noc3c2CCC[C@@]32CCCc3sc(N)c(C#N)c32)n1)[C@@H]1CCCN1C [II-173]", "> 144 µg/mL"),
    ("CO[C@H]1CCN(C)[C@@H]1[C@H](C)Oc1cc(-n2ccc(C(N)=O)n2)nc(-c2noc3c2CCC[C@@]32CCCc3sc(N)c(C#N)c32)n1 [II-201]", "> 128 µg/mL"),
    ("C[C@H](Oc1cc(-c2ccn(Cc3ncco3)n2)nc(-c2noc3c2CCC[C@@]32CCCc3sc(N)c(C#N)c32)n1)[C@@H]1CCCN1C [II-128]", "> 130 µg/mL"),
    ("C[C@H](Oc1cc(-n2ccc(-c3cn(C4CCOCC4)nn3)n2)nc(-c2noc3c2CCC[C@@]32CCCc3sc(N)c(C#N)c32)n1)[C@@H]1CCCN1C [II-210]", "5 µg/mL"),
    ("C[C@H](Oc1cc(N2CCN(C)CC2)nc(-c2noc3c2CCC[C@@]32CCCc3sc(N)c(C#N)c32)n1)[C@@H]1CCCN1C [II-55]", "> 172 µg/mL"),
    ("C[C@H](Oc1cc(N2CCCC2=O)nc(-c2noc3c2CCC[C@@]32CCCc3sc(N)c(C#N)c32)n1)[C@@H]1CCCN1C [II-73]", "> 124 µg/mL"),
    ("C[C@H](Oc1cc(N2CCN(C)C3(CC3)C2)nc(-c2onc3c2CCC[C@@]32CCCc3sc(N)c(C#N)c32)n1)[C@@H]1CCCN1C [I-41]", "> 137 µg/mL"),
    ("C[C@H](Oc1cc(N2CCOC3(CC3)C2)nc(-c2noc3c2CCC[C@@]32CCCc3sc(N)c(C#N)c32)n1)[C@@H]1CCCN1C [II-61]", "111 µg/mL"),
    ("C[C@H](Oc1cc(-c2cnsc2)nc(-c2noc3c2CCC[C@@]32CCCc3sc(N)c(C#N)c32)n1)[C@@H]1CCCN1C [II-111]", "22 µg/mL"),
    ("CO[C@@H]1C[C@@H]([C@H](C)Oc2cc(N3CCNC4(CC4)C3)nc(-c3noc4c3CCC[C@@]43CCCc4sc(N)c(C#N)c43)n2)N(C)C1 [II-187]", "> 140 µg/mL"),
    ("CO[C@@H]1C[C@@H]([C@H](C)Oc2cc(-c3ccn(C4COC4)n3)nc(-c3noc4c3CCC[C@@]43CCCc4sc(N)c(C#N)c43)n2)N(C)C1 [II-107]", "> 162 µg/mL"),
    ("C[C@H](Oc1cc(N2CCNC[C@]23CCOC3)nc(-c2noc3c2CCC[C@@]32CCCc3sc(N)c(C#N)c32)n1)[C@@H]1CCCN1C [II-50]", "> 144 µg/mL"),
    ("C[C@H](Oc1cc(-c2ccn(-c3ccsc3)n2)nc(-c2noc3c2CCC[C@@]32CCCc3sc(N)c(C#N)c32)n1)[C@@H]1CCCN1C [II-84]", "< 1 µg/mL"),
]

---

- System: KRAS G12V-dependent Ba/F3 cells
- Assay Name: Ba/F3 proliferation assay, KRAS G12V;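 further: proliferation IC50 in KRAS G12V-dependent Ba/F3 cells read by AlamarBlue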
- Format: cell-based
- Details: Mus musculus, BaF3, 72 h, AlamarBlue
pIC50: −log10 of the molar value.
pIC50 overview

# Compound, pIC50
data = [
    ("C[C@H](Oc1cc(N2CC3CCC(C2)N3)nc(-c2noc3c2CCC[C@@]32CCCc3sc(N)c(C#N)c32)n1)[C@@H]1CCCN1C", 6.17),
    ("C[C@@H]1CN(c2cc(O[C@@H](C)[C@@H]3CCCN3C)nc(-c3noc4c3CCC[C@@]43CCCc4sc(N)c(C#N)c43)n2)CCN1", 6.01),
    ("C[C@H](Oc1cc(N2CCNC3(CCC3)C2)nc(-c2noc3c2CCC[C@@]32CCCc3sc(N)c(C#N)c32)n1)[C@@H]1CCCN1C", 6.34),
    ("C[C@H](Oc1cc(N2C[C@@H](N(C)C)[C@@H](O)C2)nc(-c2noc3c2CCC[C@@]32CCCc3sc(N)c(C#N)c32)n1)[C@@H]1CCCN1C", 6.02),
    ("C[C@H](Oc1cc([C@H]2CCN(C)C2)nc(-c2noc3c2CCC[C@@]32CCCc3sc(N)c(C#N)c32)n1)[C@@H]1CCCN1C", 7.25),
    ("C[C@H](Oc1cc(N2CCN(C)CC2)nc(-c2noc3c2CCC[C@@]32CCCc3sc(N)c(C#N)c32)n1)[C@@H]1CCCN1C", 6.52),
]

---

- Study Target: KRAS (G12C)::SOS1 (Homo sapiens (Human), UniProt P01116, C118S/C51S/C80L/G12C)
- Sequence (P01116 other isoform, or with tags, fused parts or gaps G12C/C51S/C80L/C118S): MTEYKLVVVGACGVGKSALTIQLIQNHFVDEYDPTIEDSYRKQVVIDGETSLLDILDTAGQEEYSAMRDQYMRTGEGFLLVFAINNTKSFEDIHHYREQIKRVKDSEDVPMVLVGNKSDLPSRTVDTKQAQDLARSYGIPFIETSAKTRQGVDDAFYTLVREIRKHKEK
- Assay Name: KRAS::SOS1 AlphaScreen binding assay, KRAS G12C
IC50 overview
Result Type: IC50

# Compound, Reported Result
measured = [
    ("CO[C@@H]1C[C@@H]([C@H](C)Oc2cc(N3CCNC4(CC4)C3)nc(-c3noc4c3CCC[C@@]43CCCc4sc(N)c(C#N)c43)n2)N(C)C1", "2 nM"),
    ("CCOC(=O)c1ccn(-c2cc(O[C@@H](C)[C@@H]3CCCN3C)nc(-c3noc4c3CCC[C@@]43CCCc4sc(N)c(C#N)c43)n2)n1", "1 nM"),
    ("CO[C@@H]1C[C@@H]([C@H](C)Oc2cc(N3CCN(C)C4(COC4)C3)nc(-c3noc4c3CCC[C@@]43CCCc4sc(N)c(C#N)c43)n2)N(C)C1", "3 nM"),
    ("C[C@H](Oc1cc(N2CCN(C)C2=O)nc(-c2noc3c2CCC[C@@]32CCCc3sc(N)c(C#N)c32)n1)[C@@H]1CCCN1C", "2 nM"),
    ("C[C@H](Oc1cc(N2CCNC3(COC3)C2)nc(-c2noc3c2CCC[C@@]32CCCc3sc(N)c(C#N)c32)n1)[C@@H]1CCCN1C", "2 nM"),
    ("C[C@H](Oc1cc(-n2cc3c(n2)CNC3)nc(-c2noc3c2CCC[C@@]32CCCc3sc(N)c(C#N)c32)n1)[C@@H]1C[C@@H](F)CN1C", "2 nM"),
]

---

- Study Target: KRAS (WT)::SOS1 (Homo sapiens (Human), UniProt P01116, C118S)
- Sequence (P01116 other isoform, or with tags, fused parts or gaps C118S): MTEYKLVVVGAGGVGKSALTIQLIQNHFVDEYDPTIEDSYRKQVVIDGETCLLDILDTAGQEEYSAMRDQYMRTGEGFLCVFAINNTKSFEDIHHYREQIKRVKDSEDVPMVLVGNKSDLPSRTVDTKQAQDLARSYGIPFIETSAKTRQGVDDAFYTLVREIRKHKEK
- Assay Name: KRAS::SOS1 AlphaScreen binding assay, KRAS WT
pIC50: −log10 of the molar value.

# Compound, pIC50
records = [
    ("C[C@H](Oc1cc(N2CCNC3(CC3)C2)nc(-c2noc3c2CCC[C@@]32CCCc3sc(N)c(C#N)c32)n1)[C@@H]1CCCN1C", 8.52),
    ("C[C@H](Oc1nc(-c2noc3c2CCC[C@@]32CCCc3sc(N)c(C#N)c32)nc(N2CCN(C)C3(CC3)C2)c1Cl)[C@@H]1C[C@@H](F)CN1C", 7.51),
    ("C[C@H](Oc1cc(N2C[C@@H](N(C)C)[C@@H](F)C2)nc(-c2noc3c2CCC[C@@]32CCCc3sc(N)c(C#N)c32)n1)[C@@H]1CCCN1C", 8.40),
]
